Provenance of the data: patent US20240150797A1

Assay: Specific activity of purified CHI, absorbance decrease at 384 nm, 4-O-methyl butein; note: unit not given here
Assay type: biochemical
Details: purified CHI in 50 mM PBS, 100 μM substrate, 25° C.
measurement.kind: Specific activity, 4-O-methyl butein

INSERT INTO assay_data (molecule, measurement_kind, reading) VALUES
  ('CHIera Mut6: Chalcone isomerase variant 6 from Eubacterium ramulus, genetically engineered (protein, listed as Eubacterium ramulus) MADFKFEPMRSLIYVDCVSEDYRPKLQRWIYKVHIPDSISNFEPYVTKYAFYPSFPIPPQGDRFGYARMQLTEHHWLVSELDPRLEIRAIAETFPMDVLVWQGQIPAAAHTDAQIDSDGDAGDAARKSNNAEGNPFIFAFLPMWWEKDLKGKGRTIEDGANYRFNMTIGFPEGVDKAEGEKWLFEKVVPILQAAPECTRVLASAVKKDINGCVMDWVLEIWFENQSGWYKVMVDDMKALEKPSWAQQDAFPFLKPYHNVCSAAVADYTPSNNLANYRGYITMR', 'Specific activity, 4-O-methyl butein', 0.4),
  ('CHIera Mut1: Chalcone isomerase variant 1 from Eubacterium ramulus, genetically engineered (protein, listed as Eubacterium ramulus) MADFKFEPMRSLIYVDCVSEDYRPKLQRWIYKVHIPDSISKFEPYVTKYAFYPSFPIPPQGDRFGYARMQLTEHHWLVSELDPRLEINAIAETFPMDVLVWQGQIPAAAHTDAQIDSDGDAGRAAGKSNNAEGNPFIFAFLPMWWEKDLKGKGRTIEDGANYRFNMTIGFPEGVDKAEGEKWLFEKVVPILQAAPECTRVLASAVKKDINGCVMDWVLEIWFENQSGWYKVMVDDMKALEKPSWAQQDAFPFLKPYHNVCSAAVADYTPSNNLANYRGYITMR', 'Specific activity, 4-O-methyl butein', 0.4),
  ('CHI5: Chalcone isomerase from Parasporobacterium paucivorans, access no. WP_073993359.1 (protein, Parasporobacterium paucivorans) GPEFQPMRSLIYVDCVKEEYRHRLQNWLYHYHVPDSISQFAPYVSKYCFYNALPTPPEGERFGTIRQQLTEHYWMVNPFTEHFKNKALTEYFPCDVLKWQGNIPDDDLEVNFEGDEARSKGGHNGCAPFIFAFLPLCWEEDFKGKERTIENGPNYRWNFVMKYPEGTSMEEGDKWFYEKMIPAFQEMPEVTRILTSKVIQSINGCAFHRVVEMWFDGPNAWYQAAVVKAKNIEKPSWASVDAFPYLQATFEFDGIFLTDYAASDNMSQYRGYLAMR', 'Specific activity, 4-O-methyl butein', 0.4);
